Attribution: patent US20050267169A1

Tested on: porcine liver esterase
test summary: Hydrolysis in the presence of porcine liver esterase
Type: in vitro ADME
test parameters: porcine liver esterase solution, 37° C.
Structures can show the parent of a compound that is named as a salt.
endpoint: Cleaved quantitatively to the parent drug in porcine liver esterase solution

compound	value observed
CC(C)c1cccc(C(C)C)c1OC(=O)C1CCCCN1 (racemic) [Compound 6b, propofol pipecolinate]	cleaved quantitatively
CC(C)c1cccc(C(C)C)c1OC(=O)C1CCNCC1 [Compound 6d, propofol isonipecotate]	not
CC(C)c1cccc(C(C)C)c1OC(=O)[C@@H]1CCCN1 [Compound 6a, hydrochloride]	cleaved quantitatively
CC(C)c1cccc(C(C)C)c1OC(=O)C1CCCNC1 (racemic)	not

====

Form field: half-life (one value per entry).
Tested on: porcine liver esterase
test summary: Hydrolysis in the presence of porcine liver esterase
Type: in vitro ADME
test parameters: pig, porcine liver esterase; 13 U/mL, 37° C.; read-out: Half-lives at 37° C., Porcine liver esterase (13 U/mL) (converted)
Counter-ions that a name gives are not always drawn.
endpoint: half-life (min)

compound	value observed
CC(C)c1cccc(C(C)C)c1OC(=O)C1CCCCN1 (racemic) [Compound 6b, propofol pipecolinate]	13
CC(C)c1cccc(C(C)C)c1OC(=O)C1CCCNC1 (racemic) [Compound 6c]	180
CC(C)c1cccc(C(C)C)c1OC(=O)[C@@H]1CCCN1 [Compound 6a, hydrochloride]	17

====

Form field: half-life (one value per entry).
test summary: Hydrolysis in phosphate buffer containing 50% rat serum at 37° C.
Type: in vitro ADME
test parameters: 50% rat serum in phosphate buffer, 50% rat serum in pH 7.4 phosphate buffer, read-out: Half-lives at 37° C., 50% rat serum (converted)
Structures can show the parent of a compound that is named as a salt.
endpoint: half-life

molecule	endpoint	value observed
CC(C)c1cccc(C(C)C)c1OC(=O)[C@@H]1CCCN1 [Compound 6a, hydrochloride]	half-life	17 min
CC(C)c1cccc(C(C)C)c1OC(=O)C1CCCCN1 (racemic) [Compound 6b, propofol pipecolinate]	half-life	2.5 min
CC(C)c1cccc(C(C)C)c1OC(=O)C1CCCNC1 (racemic)	half-life	360 min

====

test summary: Solubility in deionized water at 25° C.
Type: physicochemical
test parameters: thermodynamic from solid, 72 h equilibration, read-out: Solubility (mg/mL) in deionized water
Structures can show the parent of a compound that is named as a salt.
endpoint: solubility at 72 h (mg/mL)

compound	endpoint	value observed
CC(C)c1cccc(C(C)C)c1OC(=O)C1CCCCN1 (racemic) [Compound 6b, propofol pipecolinate]	solubility at 72 h	13.4
CC(C)c1cccc(C(C)C)c1OC(=O)[C@@H]1CCCN1 [Compound 6a, hydrochloride]	solubility at 72 h	350
CC(C)c1cccc(C(C)C)c1OC(=O)C1CCCNC1 (racemic)	solubility at 72 h	525

====

assay system: GABAA receptor
test summary: In vitro [35S]TBPS binding assay, unwashed rat cortical membranes
test parameters: unwashed rat brain (cortical) membranes; hydrochloride
Structures can show the parent of a compound that is named as a salt.

compound	assay system	IC50 [µM]
CC(C)c1cccc(C(C)C)c1OC(=O)[C@@H]1CCCN1 [Compound 6a, hydrochloride]	GABAA receptor	31.7

====

assay system: GABAA receptor
test summary: In vitro [35S]TBPS binding assay, unwashed rat cortical membranes
test parameters: unwashed rat brain (cortical) membranes
Form field: IC50 (one value per entry).
endpoint: IC50 (µM)

compound	u	value observed
CC(C)c1cccc(C(C)C)c1OC(=O)C1CCCNC1 (racemic)	µM	152
CC(C)c1cccc(C(C)C)c1OC(=O)C1CCCCN1 (racemic) [Compound 6b, propofol pipecolinate]	µM	39.5
CC(C)c1cccc(C(C)C)c1O [Compound 1, 2,6-diisopropylphenol, reference compound]	µM	4.17
